Target: α11β1 (UniProt P09055+Q9UKX5)
Sequence (Q9UKX5 23-1188): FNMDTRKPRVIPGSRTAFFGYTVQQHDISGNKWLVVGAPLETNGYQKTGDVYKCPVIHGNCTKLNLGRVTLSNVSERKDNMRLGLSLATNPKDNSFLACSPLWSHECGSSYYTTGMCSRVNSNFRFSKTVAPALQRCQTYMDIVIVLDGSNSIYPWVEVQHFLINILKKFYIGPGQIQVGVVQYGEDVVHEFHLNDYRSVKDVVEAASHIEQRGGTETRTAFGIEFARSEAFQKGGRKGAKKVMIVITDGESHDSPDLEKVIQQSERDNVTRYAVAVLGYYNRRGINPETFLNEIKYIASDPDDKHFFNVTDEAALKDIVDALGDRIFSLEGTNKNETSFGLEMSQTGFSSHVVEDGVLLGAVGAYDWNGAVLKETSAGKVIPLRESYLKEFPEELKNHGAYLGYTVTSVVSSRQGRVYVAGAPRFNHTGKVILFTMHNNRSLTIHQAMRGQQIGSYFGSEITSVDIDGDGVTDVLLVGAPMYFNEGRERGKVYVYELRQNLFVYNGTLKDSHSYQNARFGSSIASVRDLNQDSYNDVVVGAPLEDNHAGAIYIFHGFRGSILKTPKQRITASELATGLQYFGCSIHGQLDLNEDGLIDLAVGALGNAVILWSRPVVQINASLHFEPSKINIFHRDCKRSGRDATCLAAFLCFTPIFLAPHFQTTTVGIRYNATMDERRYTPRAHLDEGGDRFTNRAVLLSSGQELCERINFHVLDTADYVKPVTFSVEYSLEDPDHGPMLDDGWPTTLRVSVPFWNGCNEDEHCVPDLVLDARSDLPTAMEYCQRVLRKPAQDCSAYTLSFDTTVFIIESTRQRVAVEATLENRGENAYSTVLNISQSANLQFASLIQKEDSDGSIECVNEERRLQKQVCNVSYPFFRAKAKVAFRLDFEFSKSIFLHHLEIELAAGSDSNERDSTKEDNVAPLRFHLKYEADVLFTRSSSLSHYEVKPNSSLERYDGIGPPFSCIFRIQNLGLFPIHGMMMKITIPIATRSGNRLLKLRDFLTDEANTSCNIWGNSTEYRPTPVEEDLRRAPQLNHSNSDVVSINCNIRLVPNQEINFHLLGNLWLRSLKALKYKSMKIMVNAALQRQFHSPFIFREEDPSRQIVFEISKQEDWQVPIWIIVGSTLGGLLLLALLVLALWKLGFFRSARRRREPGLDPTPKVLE
Sequence (P09055 21-798): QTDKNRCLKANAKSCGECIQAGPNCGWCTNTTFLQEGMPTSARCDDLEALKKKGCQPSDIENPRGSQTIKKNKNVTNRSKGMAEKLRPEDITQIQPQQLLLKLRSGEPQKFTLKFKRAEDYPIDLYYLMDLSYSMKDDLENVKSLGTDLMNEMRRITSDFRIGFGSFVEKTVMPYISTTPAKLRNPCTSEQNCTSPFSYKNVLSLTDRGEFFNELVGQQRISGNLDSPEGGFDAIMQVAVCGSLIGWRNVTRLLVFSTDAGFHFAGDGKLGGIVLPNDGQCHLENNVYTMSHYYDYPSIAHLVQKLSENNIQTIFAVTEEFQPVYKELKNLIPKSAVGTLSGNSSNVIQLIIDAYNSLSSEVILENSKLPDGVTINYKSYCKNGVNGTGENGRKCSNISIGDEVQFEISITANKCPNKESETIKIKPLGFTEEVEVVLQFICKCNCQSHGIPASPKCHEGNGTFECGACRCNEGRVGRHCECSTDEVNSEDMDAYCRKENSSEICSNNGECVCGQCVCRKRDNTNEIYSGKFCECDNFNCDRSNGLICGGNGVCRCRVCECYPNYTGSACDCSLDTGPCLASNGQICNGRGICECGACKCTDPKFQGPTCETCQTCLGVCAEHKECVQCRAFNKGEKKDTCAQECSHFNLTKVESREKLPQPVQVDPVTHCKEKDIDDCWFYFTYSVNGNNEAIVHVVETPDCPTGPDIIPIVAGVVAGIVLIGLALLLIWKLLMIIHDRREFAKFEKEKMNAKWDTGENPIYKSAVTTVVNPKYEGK
Assay: Cellular static adhesion assay: C2C12 cells expressing α11β1 on collagen peptides
Settings: C2C12-α11β1, GLOGEN coating, 5 mM MgCl2, 1 h RT; read-out: IC50, inhibition of α11β1-expressing C2C12 cell adhesion to GLOGEN
Method: C2C12s and HT1080s were grown in Lifetech DMEM/10% FBS and 1% penicillin/streptomycin. All cells were maintained under sterile conditions at 37 °C, 5% CO2. […] Immulon 2HB 96-well plates were coated with 100 μl per well of peptides at 10 μg/ml in 0.01 M acetic acid overnight at 4 °C. […] Cell number was quantified using 50 μl per well of the Roche cytotoxicity LDH kit. […] A490 was read in a SpectraMax 190 microplate reader (Molecular Devices). […]
READOUT: IC50
Include the unit right after the number.

input: For `CC1(C)SCN(S(=O)(=O)c2ccccc2)[C@@H]1C(=O)N[C@@H](CNC(=O)NCc1ccccc1)C(=O)O` , write its IC50.
output: 177 µM
